Test system: LG0703-F948-PDC spheroids with HUVEC/MSC, viability;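 further: spheroids exposed to compounds for seven days before readout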
Assay: Anticancer human tumor LG0703-F948-PDC patient-derived lung adenocarcinoma cell line growth inhibition [IpAb]
Conditions: second compound 0.1 µM; first compound 0.0316 µM; hits give low values
fulfilled if viability, T/C is below 80%. not fulfilled if not; exact matches included in not fulfilled.

# compound, class.assignment
data = [
    ("CC1(C)CCC(CN2CCN(c3ccc(C(=O)NS(=O)(=O)c4ccc(NCC5CCOCC5)c([N+](=O)[O-])c4)c(Oc4cnc5[nH]ccc5c4)c3)CC2)=C(c2ccc(Cl)cc2)C1 + CCN1CCN(Cc2ccc(Nc3ncc(F)c(-c4cc(F)c5nc(C)n(C(C)C)c5c4)n3)nc2)CC1", "not fulfilled"),
    ("Cn1nccc1Nc1nccc(-c2ccn(C(CO)c3ccc(Cl)c(F)c3)c(=O)c2)n1 (stereo not given) + CC(C)NCC(C(=O)N1CCN(c2ncnc3c2C(C)CC3O)CC1)c1ccc(Cl)cc1", "fulfilled"),
    ("Cn1ncnc1[C@H]1c2n[nH]c(=O)c3cc(F)cc(c23)N[C@@H]1c1ccc(F)cc1 + CCN1CCN(Cc2ccc(Nc3ncc(F)c(-c4cc(F)c5nc(C)n(C(C)C)c5c4)n3)nc2)CC1", "fulfilled"),
]

Could you now look at the following compound, please?
Problem: For the compound Cc1nc(NC(=O)N2CCCC2C(N)=O)sc1-c1ccnc(C(C)(C)C(F)(F)F)c1 (stereo not given) + CCN1CCN(Cc2ccc(Nc3ncc(F)c(-c4cc(F)c5nc(C)n(C(C)C)c5c4)n3)nc2)CC1 , is viability, T/C under 80%?
not fulfilled
